# nuclei count per entry
assay: endothelial E-selectin expression blockers – imaging, HUVEC, immunofluorescence, MLSMR starter and 10KST1 sets, primary screen (AID 487); conditions: HUVEC TNFalpha-induced E-selectin immunofluorescence imaging, at 2 µM; measured here: cell number, toxicity;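 as to nuclei count: 100% = median nuclei count of all wells on the same plate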
Respond with the bare value in %.

Answered examples (3):
Returns the measured nuclei count for the input compound. Input: COc1cc(C(=O)Nc2cc(-c3ccccc3)[nH]n2)cc(OC)c1OC
114

Returns the measured nuclei count for the input compound. Input: O=C(NC1CCCC1)C(NS(=O)(=O)c1cccc2nsnc12)c1ccccc1 (centres undefined)
109

Returns the measured nuclei count for the input compound. Input: Cc1ccc(S(=O)(=O)CC2CSc3nnc(C)c(=O)n32)cc1 (centres undefined)
173

Note: attention shifts to another entry.
Returns the measured nuclei count for the input compound. Input: CC(C)(C)NC(=O)Cn1nnnc1-c1nonc1N
120

---

# slope per entry
target: Alpha-2C adrenergic receptor (Homo sapiens); experiment: compounds altering alpha2C-coupled GIRK flux – cell-based, HEK293 alpha2C/GIRK1/2, thallium flux, primary screen (AID 624); conditions: thallium flux BTC fluorescence, at 10 µM, actives lie on both sides;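 also: slope of fluorescence ratio to pre-addition baseline per second over 15 to 24 s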
No unit in the answer, please; the number alone is enough.

Answered examples (5):
Record lookup: for Alpha-2C adrenergic receptor (Homo sapiens), what slope belongs to Cc1cc(=O)[nH]c(S/C=C/c2ccccc2)n1 ?
0.00593

Record lookup: for Alpha-2C adrenergic receptor (Homo sapiens), what slope belongs to COc1ccc(-c2nc(CCNC(=O)c3ccco3)cs2)cc1OC ?
0.00779

Record lookup: for Alpha-2C adrenergic receptor (Homo sapiens), what slope belongs to CC1CN(C2CCCCC2)c2nc3c(c(=O)[nH]c(=O)n3C)n2C1 (stereo not drawn) ?
0.00609

Record lookup: for Alpha-2C adrenergic receptor (Homo sapiens), what slope belongs to Nc1ccc(S(=O)(=O)c2cccc(N)c2)cc1 ?
0.00439

Record lookup: for Alpha-2C adrenergic receptor (Homo sapiens), what slope belongs to CCN(CC)C(=O)C1CCC(CNS(=O)(=O)c2cccc3cccnc23)CC1 (stereo not drawn) ?
0.00724

Note: attention shifts to another entry.
Record lookup: for Alpha-2C adrenergic receptor (Homo sapiens), what slope belongs to O=C(Nc1ccc2c(c1)OCCO2)C1CCN(C(=O)c2ccc(F)cc2)CC1 ?
0.00511

---

assay: endothelial E-selectin expression blockers – imaging, HUVEC, immunofluorescence, MLSMR starter and 10KST1 sets, primary screen (AID 487); conditions: HUVEC TNFalpha-induced E-selectin immunofluorescence imaging, at 2 µM; stronger effect = higher value;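 as to inhibition: signal is fraction of cell area covered by stained E-selectin grains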
Test readout: inhibition (%)
Respond with the bare value in %.

Returns the measured inhibition for the input molecule. Input: C=C(C)Cn1c(CCNC(=O)CC)nc2ccccc21
-107

Returns the measured inhibition for the input molecule. Input: COC(=O)C1=C(C)Nc2ncnn2C1c1ccc(C)o1 (centres undefined)
9.8

Further cases:
Returns the measured inhibition for the input molecule. Input: CCc1cccc(NC(=O)CN(C)S(=O)(=O)c2cccc3nsnc23)c1
-68.8

Returns the measured inhibition for the input molecule. Input: O=C(O)CCNc1ccc2c(c1)OCCO2
-25.3

Returns the measured inhibition for the input molecule. Input: COC(=O)c1sc(S(=O)(=O)N2CCN(c3ccccc3)CC2)c(C(=O)OC)c1C
-151

Returns the measured inhibition for the input molecule. Input: CC(=O)c1c(C)[nH]c(C(=O)NC2=NCCS2)c1C
23.6

---

# inhibition per entry
test: inhibitors of TNFa-induced NFkB p65 translocation, primary screen, imaging, HUVEC, MLSMR starter and 10KST1 sets (AID 438); details: HUVEC TNFa-induced p65 nuclear translocation; at 2 µM, stronger effect = higher value, 0% TNFa-plus-vehicle, 100% no-TNFa wells;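 also: compound added about 3h40 before a 20 min TNFalpha stimulation; signal is the nuclear over cytoplasmic p65 intensity ratio per well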
Respond with the bare value in %.

Returns the measured inhibition for the input compound. Input: COc1ccc2c(c1)CCc1cc(C(=O)N3CCN(c4ccc(N5CCOCC5)nn4)CC3)sc1-2
5.5

Returns the measured inhibition for the input compound. Input: O=C(O)c1cccc(CN2C(=O)SC(Nc3ccccc3)C2=O)c1 (centres undefined)
3.6

Returns the measured inhibition for the input compound. Input: CCCCCOC(=O)CSc1nnc(-c2cc(OC)c(OC)c(OC)c2)o1
-21.6

Note: attention shifts to another entry.
Returns the measured inhibition for the input compound. Input: CN(Cc1ccccc1)C(=O)c1cc(-c2ccc(Br)cc2)on1
2.4

---

test: endothelial E-selectin expression blockers – imaging, HUVEC, immunofluorescence, MLSMR starter and 10KST1 sets, primary screen (AID 487); settings: HUVEC TNFalpha-induced E-selectin immunofluorescence imaging, at 2 µM; measured here: cell number, toxicity;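 as to nuclei count: 100% = median nuclei count of all wells on the same plate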
Test readout: nuclei count (%)
Respond with the bare value in %.

Returns the measured nuclei count for the input compound. Input: CCOC(=O)c1c(NC(=O)c2cccs2)sc2c1CCN(C(=O)OCC)C2
115

Returns the measured nuclei count for the input compound. Input: CN(CC(=O)N1CCCCC1)S(=O)(=O)c1cccc2cccnc12
124

Returns the measured nuclei count for the input compound. Input: O=C(Cn1cnc2c(cnn2-c2ccc(F)cc2)c1=O)N1CCN(c2ccccc2)CC1
108

Note: attention shifts to another entry.
Returns the measured nuclei count for the input compound. Input: O=C(NCc1ccccc1)C1CCCN(S(=O)(=O)c2cccnc2)C1 (centres undefined)
98.3

---

molecular target: Alpha-2C adrenergic receptor (Homo sapiens); assay: compounds altering alpha2C-coupled GIRK flux – cell-based, HEK293 alpha2C/GIRK1/2, thallium flux, primary screen (AID 624); details: thallium flux BTC fluorescence, at 10 µM, actives lie on both sides;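 also: slope of fluorescence ratio to pre-addition baseline per second over 15 to 24 s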
Binary call on slope: t from 0.005 upward, f beneath that.

Examples with answers:
Hi, just wondering whether O=C(CCn1c(=O)oc2ccccc21)NCCN1CCOCC1 shows slope of 0.005 or higher.
t

Hi, just wondering whether COc1ccc(CCn2c(-c3ccco3)nc3ccccc3c2=O)cc1OC shows slope of 0.005 or higher.
t

Hi, just wondering whether O=C(C1=C(O)C(=O)N(Cc2ccccc2)C1c1ccncc1)c1ccco1 (configuration not stated) shows slope of 0.005 or higher.
t

Hi, just wondering whether CSc1nnc(-c2cnccn2)n1Cc1ccccc1 shows slope of 0.005 or higher.
t

Hi, just wondering whether Cc1cnc(NC(=O)CSc2nnc(-c3ccccc3)n2Cc2ccccc2)s1 shows slope of 0.005 or higher.
f

Now let's try a different one.
Hi, just wondering whether CC1CCN(c2oc(-c3cccc4ccccc34)nc2C#N)CC1 shows slope of 0.005 or higher.
f

---

assay: endothelial E-selectin expression blockers – imaging, HUVEC, immunofluorescence, MLSMR starter and 10KST1 sets, primary screen (AID 487); conditions: HUVEC TNFalpha-induced E-selectin immunofluorescence imaging, at 2 µM; stronger effect = higher value;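 as to inhibition: signal is fraction of cell area covered by stained E-selectin grains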
Test readout: inhibition (%)
Respond with the bare value in %.

Answered examples (2):
Returns the measured inhibition for the input molecule. Input: COc1ccc(C(=O)NCc2nc3ccccc3[nH]2)cc1OC
-7.5

Returns the measured inhibition for the input molecule. Input: C=CCn1c(C)cc(C(=O)CSc2nc3ccccc3c(=O)[nH]2)c1C
-59.5

Further cases:
Returns the measured inhibition for the input molecule. Input: COc1cc(=O)[nH]c(SCc2c(F)c(F)c(F)c(F)c2F)n1
-11.4
